Collected IC50 values appear next to each entry.
- study.target: PDE4B1 (Homo sapiens, UniProt Q07343)
- Construct: made in house; host or cells: SF21 insect cells (baculovirus; pCRBac vector), 1000 x g supernatant of homogenate
- Sequence (Q07343 whole entry): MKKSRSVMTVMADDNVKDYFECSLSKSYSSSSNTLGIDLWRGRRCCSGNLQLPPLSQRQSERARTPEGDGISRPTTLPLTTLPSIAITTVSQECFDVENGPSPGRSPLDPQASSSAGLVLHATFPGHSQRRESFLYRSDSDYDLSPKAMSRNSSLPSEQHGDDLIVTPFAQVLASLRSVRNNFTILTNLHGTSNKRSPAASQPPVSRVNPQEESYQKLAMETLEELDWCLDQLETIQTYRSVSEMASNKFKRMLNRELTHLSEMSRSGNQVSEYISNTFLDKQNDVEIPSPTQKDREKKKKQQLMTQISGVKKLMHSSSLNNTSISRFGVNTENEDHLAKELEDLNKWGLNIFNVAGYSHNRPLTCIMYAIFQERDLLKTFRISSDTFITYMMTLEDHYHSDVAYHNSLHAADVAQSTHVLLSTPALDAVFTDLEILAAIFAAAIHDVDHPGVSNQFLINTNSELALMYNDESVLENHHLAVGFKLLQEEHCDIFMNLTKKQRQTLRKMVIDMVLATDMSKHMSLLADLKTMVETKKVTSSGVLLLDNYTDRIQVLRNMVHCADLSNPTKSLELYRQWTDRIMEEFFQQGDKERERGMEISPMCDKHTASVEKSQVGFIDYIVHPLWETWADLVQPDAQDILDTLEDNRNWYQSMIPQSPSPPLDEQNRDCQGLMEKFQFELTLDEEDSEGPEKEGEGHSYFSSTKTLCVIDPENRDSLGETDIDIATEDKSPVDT
- method: Inhibition of type 4 phosphodiesterase (PDE4) activity, modified SPA test with recombinant PDE4B1 expressed in SF21 insect cells
- Assay type: biochemical
- measurement.context: recombinant PDE4B1, 0.5 μM cAMP, read-out: PDE4B1 inhibitory values [measured as −log IC50 (mol/l)] (converted)

Below are worked cases with known answers.
- molecule: "CCOC(=O)N[C@H]1CC[C@H](NC(=O)c2c(C)[nH]c3c(-c4cc(F)ccc4OCC4CC4)ncnc23)CC1"
  metric.name: "IC50"
  val: "< 100 nM"
- molecule: "CCC(=O)N1CCC(NC(=O)c2c(C)[nH]c3c(-c4cc(C(F)(F)F)ccc4OCC4CC4)ncnc23)CC1"
  metric.name: "IC50"
  val: "< 100 nM"
- molecule: "COCC(=O)N[C@H]1CC[C@H](NC(=O)c2c(C)[nH]c3c(-c4cc(C(F)F)ccc4OCC4CC4)ncnc23)C[C@H]1F (relative stereo)"
  metric.name: "IC50"
  val: "< 100 nM"

Query :: Please give the documented IC50 of CCC(=O)N[C@H]1CC[C@@H](NC(=O)c2c(C)[nH]c3c(-c4cc(OC)ccc4OCC4CC4)ncnc23)CC1
Result :: 100 to 1000 nM
